Data provenance is PubChem BioAssay AID1159580.

Assay: chemical genetic growth profiling, strain panel (AID 1159580);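 note: tested at 20 µM; growth read once vehicle control cultures reached saturation at 30 °C; 1 = growth at the plate median or of vehicle wells; lower values mean less growth of the strain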
Settings: S. cerevisiae deletion strains, growth OD, locus YLR320W, strain mms22, active compounds read low
Out of some 5,500 compounds screened, about 2,000 (36%) were called active. About 18% were inconclusive and are not listed. Some of the results follow.
Readings of normalized growth for the listed compounds
Provide a numeric answer; units are not to be included.

Nc1cc(C(Cl)=C(Cl)Cl)c(S(N)(=O)=O)cc1S(N)(=O)=O : 0.993
COc1cc(OC)c(OC)cc1C=O : 0.995
C[C@H](CCC(=O)O)[C@H]1CCC2C3C(CC[C@@]21C)[C@@]1(C)CC[C@@H](O)C[C@H]1C[C@H]3O (stereo not given in full) : 0.955
CC(=O)OCC(=O)[C@@]1(O)[C@H](OC(C)=O)CC2C3CCC4=CC(=O)C=C[C@]4(C)[C@@]3(F)[C@@H](O)C[C@@]21C (stereo not given in full) : 0.97
CCCCS(=N)(=O)CCC(N)C(=O)O (stereo not given) : 0.99

Please report normalized growth for the following compound: CC(CCC(=O)O)[C@H]1CCC2C3CC[C@@H]4C[C@H](O)CC[C@]4(C)C3C[C@H](O)[C@@]21C (stereo not given in full)
0.998

Please report normalized growth for the following compound: CC(=O)Nc1ccccc1
0.964

Please report normalized growth for the following compound: CC(CCC(=O)O)[C@H]1CCC2C3C[C@H](O)[C@@H]4C[C@H](O)CC[C@]4(C)C3CC[C@@]21C (stereo not given in full)
1.02

Please report normalized growth for the following compound: O=C(O)CCCOc1ccc(Cl)cc1Cl
0.955
